Biological target: rat brain farnesyltransferase (Rattus norvegicus, UniProt Q02293+Q04631)
Test: Farnesyltransferase assay: transfer of [3H]farnesyl from [3H]FPP to p21H-ras (TCA filter assay), competition by peptides
Format: biochemical
Design: Brains from 50 male Sprague-Dawley rats (100-150 g) were homogenized; from tissue; host or cells: rat brain (male Sprague-Dawley rats)
Details: Concentration giving 50% inhibition of farnesyltransferase (text, FIG. 14 / Table II), Example II; partially purified rat brain enzyme, p21H-ras acceptor
pIC50: −log10 of the molar value. Residues, ends and D or L forms follow the SMILES beside them.
Experimental Endpoint: pIC50

The reported pIC50 of the molecule CC[C@H](C)[C@H](NC(=O)[C@@H](NC(=O)[C@@H](N)CS)C(C)C)C(=O)N[C@@H](CCSC)C(=O)O [CVIM] (H-CVIM-OH) was 6.82

The reported pIC50 of the molecule CC[C@H](C)[C@H](NC(=O)[C@H](C)NC(=O)[C@@H](N)CS)C(=O)N[C@@H](CCSC)C(=O)O [CAIM] (H-CAIM-OH) was 6.82

====

Target: rat brain farnesyltransferase (Rattus norvegicus, UniProt Q02293+Q04631)
Assay: Farnesyltransferase assay: transfer of [3H]farnesyl from [3H]FPP to p21H-ras (TCA filter assay), competition by peptides
Format: biochemical
Parameters: Brains from 50 male Sprague-Dawley rats (100-150 g) were homogenized; from tissue; host or cells: rat brain (male Sprague-Dawley rats)
Conditions: Concentration giving 50% inhibition of farnesylation of p21H-ras, FIG. 23A; Mono Q fraction, 0.5 μM [3H]farnesyl pyrophosphate, 30 min at 37° C.
Residues, ends and D or L forms follow the SMILES beside them.
Experimental Endpoint: IC50 (nM)
# unit: nM | format: bare number

The reported IC50 of the molecule CSCC[C@H](NC(=O)[C@H](Cc1ccccc1)NC(=O)[C@@H](NC(=O)[C@H](CS)NC(C)=O)C(C)C)C(=O)O [N-AcCVFM] (Ac-CVFM-OH) was 270

====

Biological target: rat brain farnesyltransferase (Rattus norvegicus, UniProt Q02293+Q04631)
Experiment: Farnesyltransferase assay: transfer of [3H]farnesyl from [3H]FPP to p21H-ras (TCA filter assay), competition by peptides
Format: biochemical
Set-up: Brains from 50 male Sprague-Dawley rats (100-150 g) were homogenized; from tissue; host or cells: rat brain (male Sprague-Dawley rats)
Conditions: Table II; partially purified rat farnesyltransferase, p21H-ras acceptor; seven concentrations 0.03 to 100 μM; read-out: Concentration for 50% Inhibition
pIC50: −log10 of the molar value. Residues, ends and D or L forms follow the SMILES beside them.
Experimental Endpoint: pIC50

Form field pIC50 for item CC[C@H](C)[C@H](NC(=O)[C@H](CO)NC(=O)[C@@H](N)CS)C(=O)N[C@@H](CCSC)C(=O)O [CSIM] (H-CSIM-OH) on rat brain farnesyltransferase (Rattus norvegicus, UniProt Q02293+Q04631): 6.70

Form field pIC50 for item CC[C@H](C)[C@H](NC(=O)[C@@H](NC(=O)[C@@H](N)CS)C(C)C)C(=O)N[C@@H](CCSC)C(=O)O [CVIM] (H-CVIM-OH) on rat brain farnesyltransferase (Rattus norvegicus, UniProt Q02293+Q04631): 6.82

Form field pIC50 for item CSCC[C@H](NC(=O)[C@@H](NC(=O)[C@@H](NC(=O)[C@@H](N)CS)C(C)C)C(C)C)C(=O)O [CVVM] (H-CVVM-OH) on rat brain farnesyltransferase (Rattus norvegicus, UniProt Q02293+Q04631): 6.82

Form field pIC50 for item CC[C@H](C)[C@H](NC(=O)[C@H](C)NC(=O)[C@@H](N)CS)C(=O)N[C@@H](CCSC)C(=O)O [CAIM] (H-CAIM-OH) on rat brain farnesyltransferase (Rattus norvegicus, UniProt Q02293+Q04631): 6.82

Form field pIC50 for item CC[C@H](C)[C@H](NC(=O)[C@@H](NC(=O)[C@@H](N)CS)[C@@H](C)CC)C(=O)N[C@@H](CCSC)C(=O)O [CIIM] (H-CIIM-OH) on rat brain farnesyltransferase (Rattus norvegicus, UniProt Q02293+Q04631): 6.82
